Counter-ions that a name gives are not always drawn.
melting point values by entry

MOLECULE | MEASUREMENT
CCc1nc2c(N)nc3ccccc3c2n1CC#Cc1cnccn1 (as salt: hydroiodid) [Example 5] | 180 to 225 °C (dec.)

Proceeding to the next molecule to report its melting point.
Exam item: Request the reported melting point associated with CCc1nc2c(N)nc3ccccc3c2n1CCCC#Cc1ccc(OC)cc1 (as salt: hydroiodid) [Example 14]
Marked response: 230 °C

---

Structures can show the parent of a compound that is named as a salt.
MEASURED_PARAMETER: melting point

Example entries begin here.
COMPOUND | MEASURED_PARAMETER | MEASUREMENT
CCc1nc2c(N)nc3ccccc3c2n1CC#Cc1ccc([N+](=O)[O-])cc1 [Example 10] | melting point | 190 to 206 °C
CCc1nc2c(N)nc3ccccc3c2n1CC#Cc1cccc(C(F)(F)F)c1 [Example 8] | melting point | 202.5 to 203.5 °C
CCc1nc2c(N)nc3ccccc3c2n1CC#Cc1cccnc1 (as salt: hydroiodid) [Example 1] | melting point | 249 to 251 °C (dec.)
CCOC(=O)c1ccc(C#CCn2c(CC)nc3c(N)nc4ccccc4c32)cc1 [Example 6] | melting point | 221 to 222 °C (dec.)
CCc1nc2c(N)nc3ccccc3c2n1CCCC#Cc1cccs1 [Example 12] | melting point | 175 to 190 °C (dec.)

Exam item: Request the reported melting point associated with CCc1nc2c(N)nc3ccccc3c2n1CC#Cc1cccs1 (as salt: hydroiodid) [Example 2]
Marked response: 185 to 205 °C
